- Test system: SK-OV-3
- MEASUREMENT_PROTOCOL: Cytotoxicity against human SKOV3 cells by SRB assay
- Format: functional, cell-based
pIC50: −log10 of the molar value.
// pIC50 lookup, one value per entry
MEASUREMENT_LABEL: pIC50

compound="C[C@@H]1[C@@H]2C(=CC3=C(C(=O)O[C@@H]3O)[C@@H]1O)CC(C)(C)[C@@H]2O [SUBVELLEROLACTONES D]" value_measured="< 4.52"
compound="CC1(C)C[C@@H]2[C@H]([C@H]1O)[C@@](C)(O)CC1=C(C(=O)OC1)[C@H]2O [5-DESOXYLACTAROLIDE B]" value_measured="< 4.52"
compound="COc1cccc2c1C(=O)c1c(O)c3c(c(O)c1C2=O)C[C@@](O)(C(=O)CO)C[C@@H]3O[C@H]1C[C@H](N)[C@H](O)[C@H](C)O1 [DOXORUBICIN]" value_measured=9.00

The reported measurements were obtained from ChEMBL document CHEMBL1221373.
